target: T1, purified recombinant 161P2F10B extracellular domain (Tag5-161P2F10B ECD, amino acids 46-875) (human, UniProt O14638 46-875); experiment: SPR (BIAcore), MAb captured on chip, recombinant 161P2F10B injected, 1:1 fit;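 further: purified human MAbs immobilised by capture on a CM5 chip surface, about 150 RU of antibody per cycle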
T1 construct: also called full length ECD
Outcome: Condition met for kon of at least 40000 M⁻¹ s⁻¹; Condition not met for anything lower.

Ha16-1(3,5)27.1 (antibody, V domains shown, VH entry holds part of the leader; both hold a portion of the constant region) VH: LVESGAEVKKPGESLKISCKGSGYRFTSYWIGWVRQMPGKGLEWMGIIYPGDSDTRYSPSFQGQVTISADKSISTAYLQWSSLKASDTAMYYCARKDYYYYSMDVWGQGTTVTVSS VL: GQSALTQPASVSGSPGQSITISCTGTSSDVGGYNYVSWYQQHPGQAPKLLIYGVNIRPSGVSTRFSGSKSGNTASLTISGLQAEDEADYYCSSYTRSSILVVFAGGTKLTVLG ... Condition not met

Task: Hi team, for H16-9.10 (antibody, V domains shown, also called Ha16-9.10) VH: LLESGPGLVKPSQTLSLTCAISGDSVSSNSAAWNWIRQSPSRGLEWLGRTYYRSKWYNAYAVSVKSRMTINPDTSKNQFSLQLNSVTPEDTAVYYCAREAGGWFDPWGQGTLVTVSS VL: DIQMTQSPSSVSASVGDRVTITCRASQGIRSWLAWYQQKPGKAPKLLIYAASSLQSGVPSRFSGSGSGTDFTLTISSLQPEDFATYYCQQANSFPPTFGGGTKVEIKR , is the recorded kon at or above 40000 M⁻¹ s⁻¹?
Result: Condition met

Task: # check: kon of H16-7.213 (antibody, V domains shown) VH: WGLSEVSCKASGYTFTGYYMHWVRQAPGQGLEWMGWINPNSGGTNYAQKFQGRVTMTRDTSISTAYMELSRLRSDDTAVYYCARELRYFGWLLSSLDYWGQGTLVTVSS VL: DIQMTQSPSSLSASVGDRVTITCRASQSISSYLNWFQQKPGKAPKLLIYAASSLQSGVPSRFSGSESGTDFTLTISSLQPEDFATYSCQQSYSFPLTFGGGTKVEIKR is greater than or equal to 40000 M⁻¹ s⁻¹
Result: Condition met

Task: Assess whether reported kon for Ha16-1(1)23 (antibody, V domains shown) VH: VESGGGVVQPGRSLRLSCAASGFTFRSYGMHWVRQAPGKGLEWVAVIWSDGSNKYYADSVKGRFTISRDNSKNTLYLQMNSLRAEDTAVYYCAREGYYGSGSYYYYYGMDVWGQGTTVTVSS VL: QAGLTQPPSVSKGLRQTATLTCTGNSNNVGTQGAAWLQQHQGHPPKLLSYRNNNRPSGISERLSASTSGNTASLTITGLQPEDEADYYCSAWDSSLSAVVFGGGTKLTVLG sits at 40000 M⁻¹ s⁻¹ or higher.
Result: Condition not met

Task: Determine whether measured kon meets or exceeds 40000 M⁻¹ s⁻¹ for H16-7.8 (antibody, V domains shown, Entries hold the leader and a portion of the constant region) VH: QVQLQESGPGLVKPSQTLSLTCTVSGGSISSGGYYWSWIRQHPGKGLEWIGIIYYSGSTYYNPSLKSRVTISVDTSKNQFSLKLNSVTAADTAVFYCARVAIVTTIPGGMDVWGQGTTVTVSS VL: EIVLTQSPDFQSVTPKEKVTITCRASQSIGISLHWYQQKPDQSPKLLIKYASQSFSGVPSRFSGSGSGTDFTLTINSLEAEDAATYYCHQSRSFPWTFGQGTKVEIKR
Result: Condition not met
